Target: EBP (Homo sapiens, UniProt Q15125)
Construct: HEK293T cells were utilized as the source of EBP enzyme; endogenous in cells
Sequence (Q15125 whole entry): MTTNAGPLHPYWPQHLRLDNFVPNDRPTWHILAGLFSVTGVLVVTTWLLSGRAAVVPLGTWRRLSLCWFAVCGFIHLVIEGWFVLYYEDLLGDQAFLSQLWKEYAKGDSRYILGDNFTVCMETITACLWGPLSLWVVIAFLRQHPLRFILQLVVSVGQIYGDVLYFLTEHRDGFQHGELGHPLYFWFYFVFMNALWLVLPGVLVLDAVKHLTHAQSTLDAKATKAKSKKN
Experiment: EBP Functional Assay (EBP immunoaffinity LC-MS assay)
Conditions: EBP enzyme from HEK293T cells; 30 min with inhibitor, then zymosterol-d5, 37° C., 4 h; percent conversion to dehydrolathosterol-d5 by LC-APCI MRM MS
readoutKind: IC50

Answered cases to consult:
compound="Cc1nc(C(F)(F)F)ccc1S(=O)(=O)N1CC2(CN(C3CCOCC3(C)C)C2)C1 (centres unmarked)" result="< 100 nM"
compound=Cc1nc(C(F)(F)F)ccc1S(=O)(=O)N1CC2(CN(CC3(F)CCOCC3)C2)C1 result="< 100 nM"
compound="Cc1nc(C(F)(F)F)ccc1S(=O)(=O)N1CC2(CN(C(C)C3CCCO3)C2)C1 (mixture of isomers)" result="< 100 nM"
compound=Cc1nc(C(F)(F)F)ccc1S(=O)(=O)N1CC2(CN(CC3(O)CCOCC3)C2)C1 result="250 to 4000 nM"
compound=Cn1nc(C(C)(F)F)cc1S(=O)(=O)N1CC2(CN(C3CCOCC3)C2)C1 result="100 to 250 nM"
compound=O=S(=O)(c1ccc(OC(F)F)cc1)N1CCC2(CC1)CN(C1CCOCC1)CCO2 result="100 to 250 nM"

Req: Requested read-out IC50, target or system EBP (Homo sapiens, UniProt Q15125), entry CC1(CN2CCC3(CC2)CN(S(=O)(=O)c2ccc(OC(F)F)cc2)CCO3)COC1
Resp: 100 to 250 nM

Req: Try the compound O=S(=O)(c1ccc(OC(F)F)cc1)N1CCOC2(CCN(CC3CCOCC3)CC2)C1
Resp: 250 to 4000 nM
